# System: Mus musculus
# experiment_summary: Neurotoxicity in albino CF1 mouse assessed as minimal motor impairment at 300 mg/kg, ip after 0.5 hr by rotorod test
# Format: toxicity, organism-based
# Parameters: dose 300 mg/kg, route intraperitoneal
# experimental_setup: in vivo
assay_metric: Activity

Before answering, review these 8 worked examples.
INSERT INTO measurements (compound, assay_metric, value_observed) VALUES
  ('O=C1OCCC1N1CCc2ccccc2C1 (racemic)', 'Activity', 'Non-toxic'),
  ('COc1cc2c(cc1OC)CN(C1CCOC1=O)CC2 (racemic)', 'Activity', 'Non-toxic'),
  ('COc1ccccc1N1CCN(C2CCOC2=O)CC1 (racemic)', 'Activity', 'Toxic'),
  ('O=C1OCCC1N1C(=O)c2ccccc2C1=O (racemic)', 'Activity', 'Toxic'),
  ('Cl.O=C1OCCC1N1CCOCC1 (racemic)', 'Activity', 'Toxic'),
  ('O=C1CC(N2CCN(c3ccccc3)CC2)CO1 (racemic)', 'Activity', 'Toxic'),
  ('NC(=O)c1ccccc1OC1CCOC1=O (racemic)', 'Activity', 'Non-toxic'),
  ('Cc1cccc(C)c1NC1CCOC1=O (centres undefined)', 'Activity', 'Non-toxic');

### Prompt Checklist item: Activity tested on Mus musculus, entry O=C1OCCC1N1CCN(c2cccc(C(F)(F)F)c2)CC1 (racemic) , value?
### Response Toxic

### Prompt Repeat with `C/C(NCc1ccccc1)=C1\CCOC1=O`
### Response Non-toxic

### Prompt Ok, now CC1CC(N2CCN(c3ccccc3)CC2)C(=O)O1 (mixture of isomers)
### Response Toxic

### Prompt Same question for `COc1ccc(CCN/C(C)=C2/CCOC2=O)cc1OC` please.
### Response Non-toxic

### Prompt // query: Cl.O=C1OCCC1NCc1ccccc1 (racemic)
### Response Non-toxic

### Prompt Param item: O=C1OCCC1N1CCN(c2ccccc2)CC1 (racemic)
### Response Toxic

### Prompt Same thing, different compound: O=C1OCCC1N1CCN(c2ccc(F)cc2)CC1 (racemic)
### Response Toxic

### Prompt Repeat for the following compound: COc1ccc(Cl)cc1N1CCN(C2CCOC2=O)CC1 (racemic)
### Response Toxic

### Prompt Now try `C/C(Nc1ccccc1)=C1\CCOC1=O` .
### Response Toxic

### Prompt Try the compound Cl.O=C1OCCC1NC1CCCCC1 (racemic)
### Response Non-toxic
